# subjectOfTest: human Lck enzyme (Homo sapiens)
# Construct: purchased Carna Biosciences, Inc. 08-170
# Sequence (P06239 whole entry): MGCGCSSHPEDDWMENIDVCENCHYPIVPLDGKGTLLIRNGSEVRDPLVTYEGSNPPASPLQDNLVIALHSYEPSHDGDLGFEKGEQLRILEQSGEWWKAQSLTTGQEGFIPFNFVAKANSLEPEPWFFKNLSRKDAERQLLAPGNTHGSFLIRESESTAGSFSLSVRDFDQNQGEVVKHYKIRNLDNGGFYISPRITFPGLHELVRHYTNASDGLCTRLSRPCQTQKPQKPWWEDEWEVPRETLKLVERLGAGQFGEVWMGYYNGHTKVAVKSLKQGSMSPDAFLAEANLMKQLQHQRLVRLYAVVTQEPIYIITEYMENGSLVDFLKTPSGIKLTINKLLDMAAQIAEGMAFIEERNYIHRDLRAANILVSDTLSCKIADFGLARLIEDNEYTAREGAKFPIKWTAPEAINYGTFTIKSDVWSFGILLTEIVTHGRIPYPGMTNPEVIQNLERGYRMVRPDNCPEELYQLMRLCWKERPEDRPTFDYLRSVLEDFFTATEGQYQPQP
# assayDetails: Lck enzyme inhibitory activity (time-resolved fluorometry, biotinylated peptide phosphorylation)
# Type: biochemical
# protocolConditions: read-out: LCK_IC50
# Description: 3. Lck Enzyme Inhibitory Activity Lck inhibitory activity was determined based on activity of inhibiting phosphorylation reaction of a biotinylated peptide (EGPWLEEEEEAYGWMDF) using a human Lck enzyme (manufactured by Carna Biosciences, Inc., cat 08-170). The phosphorylated biotinylated peptide was detected by time-resolved fluorometry using an anti-phosphorylated tyrosine antibody conjugated to europium cryptate, and streptavidin conjugated to XL665, an allophycocyanin derivative. […]
pIC50: −log10 of the molar value.
valueKind: pIC50

// below: answered compounds
[
  {
    "compound": "CC(=O)N1CCC(c2cc3[nH]c(C(=O)c4cnn(-c5ccc(Oc6ccccc6F)cc5C)c4N)cc3cc2C)CC1 [Example 5-1-132]",
    "subjectOfTest": "human Lck enzyme (Homo sapiens)",
    "pIC50": 8.48
  },
  {
    "compound": "Cc1cc(-n2ncc(C(=O)c3cc4cc(F)c(NS(C)(=O)=O)cc4[nH]3)c2N)cnc1Oc1ccccc1Cl [Example 5-1-041]",
    "subjectOfTest": "human Lck enzyme (Homo sapiens)",
    "pIC50": 5.70
  },
  {
    "compound": "Cc1cc2cc(C(=O)c3cnn(-c4ccc(Oc5ccccc5F)c(C)c4C)c3N)[nH]c2cc1NS(C)(=O)=O [Example 5-1-213]",
    "subjectOfTest": "human Lck enzyme (Homo sapiens)",
    "pIC50": 6.82
  },
  {
    "compound": "Cc1cc(Oc2c(F)cccc2F)ncc1-n1ncc(C(=O)c2cc3cc(SC(F)F)c(N4C(=O)NC(C)(C)C4=O)cc3[nH]2)c1N [Example 5-1-324]",
    "subjectOfTest": "human Lck enzyme (Homo sapiens)",
    "pIC50": 7.72
  },
  {
    "compound": "Cc1cc(Oc2ccccc2F)ccc1-n1ncc(C(=O)c2cc3cc(C4CC4)c(NS(=O)(=O)C4CCOCC4)cc3[nH]2)c1N [Example 5-1-397]",
    "subjectOfTest": "human Lck enzyme (Homo sapiens)",
    "pIC50": 7.51
  }
]

[1] Cc1cc(-n2ncc(C(=O)c3cc4cc(OC5CCN(C(C)C)CC5)c(N5C(=O)N[C@@H](C(C)C)C5=O)cc4[nH]3)c2N)ccc1Oc1ccccc1F [Example 5-1-295]
[2] Cc1cc(Oc2ccccc2F)ccc1-n1ncc(C(=O)c2cc3cc(N4CCOCC4)c(Br)cc3[nH]2)c1N [Example 5-1-147]
[3] Cc1cc(Oc2c(F)cccc2F)ncc1-n1ncc(C(=O)c2cc3cc(F)c(N4CCC(N5CCOCC5)CC4)cc3[nH]2)c1N [Example 5-1-112]
[4] CCOc1cc2cc(C(=O)c3cnn(-c4ccc(Oc5ccccc5F)cc4C)c3N)[nH]c2cc1C1CCN(S(C)(=O)=O)CC1 [Example 5-1-073]
[5] COC(=O)[C@H](Cc1cnc[nH]1)NC(=O)Nc1cc2[nH]c(C(=O)c3cnn(-c4ccc(Oc5ccccc5F)cc4C)c3N)cc2cc1OCC(F)F [Example 5-1-246]
Rank entries according to their pIC50, from the largest number down. To answer, write out the labels according to the requested order. 3, 5, 2, 4, 1
(3: 8.77, 5: 8.15, 2: 7.92, 4: 7.49, 1: 7.19)

[A] Cc1cc(Oc2c(F)cccc2F)ncc1-n1ncc(C(=O)c2cc3cc(F)c(NS(=O)(=O)C4CCOCC4)cc3[nH]2)c1N [Example 5-1-381]
[B] Cc1cc2cc(C(=O)c3cnn(-c4cnc(Oc5ccccc5F)cc4C)c3N)[nH]c2cc1NS(=O)(=O)CC(=O)N1CCCC1 [Example 5-1-121]
Between A and B , whose measured pIC50 reads higher? I would appreciate it if you answered with the label of your choice. B
(B: 7.85, A: 7.37)

[P] Cc1cc(-n2ncc(C(=O)c3cc4cc(OC5CCN(C6CCCC6)CC5)c(-c5ccccc5C(F)(F)F)cc4[nH]3)c2N)ccc1Oc1ccccc1F [Example 5-1-385]
[Q] Cc1cc2cc(C(=O)c3cnn(-c4cnc(Oc5ccccc5F)cc4C)c3N)[nH]c2cc1C1CCN(S(=O)(=O)C2CC2)CC1 [Example 5-1-123]
Select the item whose pIC50 value is smaller, choosing between P and Q . I would appreciate it if you answered with the label of your choice. P
(P: 6.41, Q: 7.48)

[A] Cc1cc(-n2ncc(C(=O)c3cc4cc(OC5CCN(C(C)C)CC5)c(-c5cncnc5)cc4[nH]3)c2N)ccc1Oc1ccccc1F [Example 5-1-240]
[B] Cc1cc(-n2ncc(C(=O)c3cc4cc(OC5CCN(C(C)C)CC5)c(N5CCN(S(C)(=O)=O)CC5)cc4[nH]3)c2N)ccc1Oc1ccccc1F [Example 5-1-176]
Between A and B , whose measured pIC50 reads higher? I would appreciate it if you answered with the label of your choice. B
(B: 7.96, A: 7.72)
